- SETUP CONDITIONS: in 2-butoxyethanol, 283.15 K
MEASURED ENDPOINT: solubility (mole fraction)

QUERY: Give recorded solubility (mole fraction). Sc1nc2ccccc2[nH]1
RESULT: 0.0459

----------
- SETUP CONDITIONS: in n-butyl acetate, 313.15 K
MEASURED ENDPOINT: solubility (mole fraction)
Form field (numeric): enter value without unit.

QUERY: Give recorded solubility (mole fraction). Sc1nc2ccccc2[nH]1
RESULT: 0.00614

----------
- SETUP CONDITIONS: in isopropyl acetate, 293.15 K
MEASURED ENDPOINT: solubility (mole fraction)
Form field (numeric): enter value without unit.

QUERY: Give recorded solubility (mole fraction). Sc1nc2ccccc2[nH]1
RESULT: 0.00272

----------
- SETUP CONDITIONS: in 2-propoxyethanol, 323.15 K
MEASURED ENDPOINT: solubility (mole fraction)
Form field (numeric): enter value without unit.

QUERY: Give recorded solubility (mole fraction). Sc1nc2ccccc2[nH]1
RESULT: 0.0555

----------
- SETUP CONDITIONS: in isobutanol, 303.15 K
MEASURED ENDPOINT: solubility (mole fraction)

QUERY: Give recorded solubility (mole fraction). Sc1nc2ccccc2[nH]1
RESULT: 0.00724

----------
- SETUP CONDITIONS: in 2-butoxyethanol, 288.15 K
MEASURED ENDPOINT: solubility (mole fraction)
Form field (numeric): enter value without unit.

QUERY: Give recorded solubility (mole fraction). Sc1nc2ccccc2[nH]1
RESULT: 0.0463

----------
- SETUP CONDITIONS: in ethylene glycol, 308.15 K
MEASURED ENDPOINT: solubility (mole fraction)
Form field (numeric): enter value without unit.

QUERY: Give recorded solubility (mole fraction). Sc1nc2ccccc2[nH]1
RESULT: 0.0206

----------
- SETUP CONDITIONS: in MIBK, 323.15 K
MEASURED ENDPOINT: solubility (mole fraction)
Form field (numeric): enter value without unit.

QUERY: Give recorded solubility (mole fraction). Sc1nc2ccccc2[nH]1
RESULT: 0.0114

----------
- SETUP CONDITIONS: in isobutanol, 313.15 K
MEASURED ENDPOINT: solubility (mole fraction)
Form field (numeric): enter value without unit.

QUERY: Give recorded solubility (mole fraction). Sc1nc2ccccc2[nH]1
RESULT: 0.0092

----------
- SETUP CONDITIONS: in 2-ethoxyethanol, 293.15 K
MEASURED ENDPOINT: solubility (mole fraction)
Form field (numeric): enter value without unit.

QUERY: Give recorded solubility (mole fraction). Sc1nc2ccccc2[nH]1
RESULT: 0.059

----------
- SETUP CONDITIONS: in 2-butoxyethanol, 293.15 K
MEASURED ENDPOINT: solubility (mole fraction)
Form field (numeric): enter value without unit.

QUERY: Give recorded solubility (mole fraction). Sc1nc2ccccc2[nH]1
RESULT: 0.0469

----------
- SETUP CONDITIONS: in ethyl formate, 323.15 K
MEASURED ENDPOINT: solubility (mole fraction)
Form field (numeric): enter value without unit.

QUERY: Give recorded solubility (mole fraction). Sc1nc2ccccc2[nH]1
RESULT: 0.00323

----------
- SETUP CONDITIONS: in ethylene glycol, 318.15 K
MEASURED ENDPOINT: solubility (mole fraction)

QUERY: Give recorded solubility (mole fraction). Sc1nc2ccccc2[nH]1
RESULT: 0.0238
